# Tested on: Wild type
# protocol: S. aureus survival, RN4220 and DeltatarO strains – OD600, teichoic acid synthesis inhibitors, primary screen (AID 463173)
# conditionInfo: S. aureus RN4220 wild type/DeltatarO growth, OD600, 18 h, active compounds read low, screened at 18.75 µg/mL (by protocol)
About 1,700 (3.3%) of roughly 52,000 compounds were called active. Shown is part of a subset that was picked to be rich in actives.
So I've got a bunch of compounds here, and I need their survival values.
Give the value, in units of %, as a plain number.

State the recorded survival for this entry: "Cc1nn(-c2ccccc2)c(OC(=O)C(C)(C)C)c1Sc1ccccc1" 51

State the recorded survival for this entry: "Cc1ccc(Sc2c(C)nn(-c3ccccc3)c2OC(=O)C(C)(C)C)cc1" -6

State the recorded survival for this entry: "COCC(=O)Oc1c(Sc2ccc(C)cc2)c(C)nn1C(C)(C)C" 69

State the recorded survival for this entry: "COc1ccc(CCNC(=O)c2nc(SCc3ccc(F)cc3)ncc2Cl)cc1OC" 86

State the recorded survival for this entry: "Cc1oc2ncn(CC(C)C)c(=O)c2c1C(=O)NCCCN(C)Cc1ccccc1" 76

----------
# System: Wild type
# protocol: S. aureus survival, RN4220 and DeltatarO strains – OD600, teichoic acid synthesis inhibitors, primary screen (AID 463173)
# conditionInfo: S. aureus RN4220 wild type/DeltatarO growth, OD600, 18 h, active compounds read low, screened at 18.75 µg/mL (by protocol)
In all, about 52,000 compounds went through this assay and about 1,700 (3.3%) were called active. The sample as a whole holds a higher share of actives than the screen did.
testReadout: survival (%)
Give the value, in units of %, as a plain number.

State the recorded survival for this entry: CCOC(=O)c1ccc(NC(=O)CC2C(=O)N(c3ccccc3)C(=O)N2Cc2ccc(C)cc2)cc1 (centres undefined) 58

State the recorded survival for this entry: "O=C(COCc1cc(-c2cccs2)on1)Nc1cccc(O)c1" -3

State the recorded survival for this entry: "O=C(COCc1cc(-c2cccs2)on1)N1CCN(c2ccc(F)cc2)CC1" 73

State the recorded survival for this entry: "N#CC1=C(N)SC(N)=C(C#N)C1c1cc2c(cc1Cl)OCO2" 112

State the recorded survival for this entry: Cc1ccc(C(=O)NCC(c2ccc3c(c2)OCO3)N2CCN(c3ccc(F)cc3)CC2)cc1 (centres undefined) 68

State the recorded survival for this entry: "COc1cc2nc(SCC(=O)Nc3c(C)cc(C)cc3C)n3nc(CCn4c(C)nc5ccccc54)nc3c2cc1OC" 91

State the recorded survival for this entry: "COc1ccc(NC(=O)Cn2c(=O)n(CCC(=O)NCCc3ccc(OC)c(OC)c3)c(=O)c3ccccc32)cc1Cl" 92

State the recorded survival for this entry: "O=C(Cn1cc(S(=O)(=O)c2ccccc2)c(=O)c2cc3c(cc21)OCO3)Nc1ccc(Cl)cc1" 65

State the recorded survival for this entry: "O=C(COCc1cc(-c2cccs2)on1)N1CCN(c2cccc(Cl)c2)CC1" 10

----------
So I've got a bunch of compounds here, and I need their survival values.
# Tested on: Wild type
# protocol: S. aureus survival, RN4220 and DeltatarO strains – OD600, teichoic acid synthesis inhibitors, primary screen (AID 463173)
# conditionInfo: S. aureus RN4220 wild type/DeltatarO growth, OD600, 18 h, active compounds read low, screened at 18.75 µg/mL (by protocol)
About 1,700 (3.3%) of roughly 52,000 compounds were called active. The sample holds actives, similar compounds and a random draw of the others, so the mix is not that of the screen.

State the recorded survival for this entry: "CCN(CC)c1ccc(NC(=O)CN2C(=O)c3cccnc3Oc3ccccc32)c(C)c1" 135% (inactive)

State the recorded survival for this entry: "Cc1ccc(CNC(=O)c2ccc3c(c2)N(Cc2cccc(Cl)c2)C(=O)CS3)cc1" 70% (inactive)

State the recorded survival for this entry: CC(C)CCSc1nnc2n(-c3ccccc3)c(=O)c3c4c(sc3n12)CC(C)CC4 (stereo not given) 76% (inactive)

State the recorded survival for this entry: "C=Cc1ccc(Cn2nc(-c3ccc(C)cc3)ccc2=O)cc1" 57% (inactive)

State the recorded survival for this entry: COc1ccc(C(C(=O)NCc2ccccc2)N(Cc2ccco2)C(=O)c2cnccn2)cc1 (stereo not given) 101% (inactive)

State the recorded survival for this entry: CSc1nc2sc3c(c2c(=O)n1Cc1ccccc1)CCC(C(C)(C)C)C3 (stereo not given) 113% (inactive)

State the recorded survival for this entry: Cc1ccc(S(=O)(=O)NCC2CCC(C(=O)NCc3ccc(F)cc3)CC2)cc1 (stereo not given) 75% (inactive)

State the recorded survival for this entry: "COc1ccc(-n2c(-c3ccc(F)cc3)cn3c4c(=O)n(C)c(=O)n(C)c4nc23)cc1" 63% (inactive)

State the recorded survival for this entry: CCC(Cc1ccccc1)NC(=O)Cn1ncc2c3ccccc3n(Cc3ccccc3)c2c1=O (stereo not given) 80% (inactive)

State the recorded survival for this entry: "CCSc1nc2sc3c(c2c(=O)n1-c1ccc(C)c(Cl)c1)CCN(C(C)=O)C3" 70% (inactive)
